System: RXF 393 renal
method summary: NCI-60 one-dose screen, 48 h (100 = growth as untreated, 0 = no growth, -100 = all killed)
applied conditions: 10 µM unless noted
Compounds without any hit were thinned out: in the full panel of roughly 83,000, 20% have a hit. The source made the active and inactive calls. The calls were made as follows: active = growth percent below 10; inactive = the rest.
Below, each entry is listed alongside its reported growth.

Below, 4 compounds whose answers are already recorded.
{"entry smiles": "Oc1ccc2cc(Br)ccc2c1-c1c(O)ccc2cc(Br)ccc12", "data value": "59.8% (inactive)"}
{"entry smiles": "C/C(=C\\c1ccc(OCC(=O)O)c(Cl)c1Cl)[N+](=O)[O-]", "data value": "136% (inactive)"}
{"entry smiles": "N/C(=N\\C(N)=N\\c1nc2ccccc2s1)c1cccc(Br)c1", "data value": "95.5% (inactive)"}
{"entry smiles": "COc1ccc(C(=O)N2NC(=O)/C(=C/c3ccc(F)cc3)N=C2c2ccccc2)cc1", "data value": "94.5% (inactive)"}

### Prompt What value of growth on RXF 393 renal does "COc1ccc(-c2[nH]nc(N)c2-c2cc(OC)c3c(c2)OCO3)cc1" have?
### Response 95.9% (inactive)
